systemTested: T1, GARS, endogenous in H929 multiple myeloma cells (human, UniProt P41250 37-739, limits assumed)
T1 construct: Native protein pulled down from H929 lysates; also called Glycyl-tRNA synthetase; GlyRS
T1 sequence: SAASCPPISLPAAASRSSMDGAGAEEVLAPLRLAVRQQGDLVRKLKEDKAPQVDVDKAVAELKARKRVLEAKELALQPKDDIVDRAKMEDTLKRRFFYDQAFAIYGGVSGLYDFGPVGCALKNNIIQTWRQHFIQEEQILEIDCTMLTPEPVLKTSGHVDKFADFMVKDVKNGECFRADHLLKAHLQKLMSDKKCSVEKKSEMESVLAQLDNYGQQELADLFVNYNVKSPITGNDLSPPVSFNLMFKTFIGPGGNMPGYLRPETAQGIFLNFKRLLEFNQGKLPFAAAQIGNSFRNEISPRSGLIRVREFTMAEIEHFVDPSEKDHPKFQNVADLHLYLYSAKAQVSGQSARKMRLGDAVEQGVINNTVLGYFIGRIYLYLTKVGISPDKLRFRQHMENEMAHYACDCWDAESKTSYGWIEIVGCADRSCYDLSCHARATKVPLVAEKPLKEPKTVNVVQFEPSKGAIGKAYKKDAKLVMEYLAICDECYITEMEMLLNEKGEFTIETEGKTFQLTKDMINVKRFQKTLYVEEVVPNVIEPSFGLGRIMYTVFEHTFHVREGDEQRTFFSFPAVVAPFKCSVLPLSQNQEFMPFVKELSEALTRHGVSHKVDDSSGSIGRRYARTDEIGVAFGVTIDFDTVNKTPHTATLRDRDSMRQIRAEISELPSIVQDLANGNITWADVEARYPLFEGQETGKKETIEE
testSummary: flow cytometry, H929 + CDH18 siRNA; None 443; surface target GARS putative
valueKind: mAb binding (MFI)

[[record]]
binder = "HW-16 chimeric rabbit-human IgG1 LA/LA/PG (antibody, V domains shown, Fc-silenced (L234A/L235A/P329G) IgG1, kappa; Alexa Fluor 647-labeled in single-step flow cytometry; Cluster C-45) VH: QSLEESGGRLVTPGTPLTLTCTASGFSLSSYAMSWVRQAPGKGLEWIGTMPTGGGTYYASWAKGRFTISKTSTTVDLQITSPTTEDTATYFCAKHWNIWGPGTLVTISS VL: DIVLTQTPSSTSTAVGDTVTINCRASQSIGRNLAWFQQKPGQPPKLLIYRASNLASGVPSRFKGSGSRTQFTLTISGVQREDAATYYCLGSYSSSDTAFGGGTELEILR"
valuekind = "mAb binding (MFI)"
reading = 174000

[[record]]
binder = "HW-81 chimeric rabbit-human IgG1 LA/LA/PG (antibody, V domains shown, Fc-silenced (L234A/L235A/P329G) IgG1, lambda; Alexa Fluor 647-labeled in single-step flow cytometry; Cluster C-45) VH: QKQLVESGGGLVTPGGTLTLTCTVSGFSLSSNGVSWVRQAPGKGLEYIGLIRSIGSTYYATWAKGRFTISKTSTTVDLKITSPTTEDTATYFCARGGYRNGFKLWGPGTLVTVSS VL: QPVLTQSPSVSAALGASAKLTCTLSSAHKTYYIEWYQQQHPGKAPRYLMQLQSDGSYTKGTGVPDRFSGSSSGADRYLIISSVQAEDEADYICGVIDSAVYVFGGGTQLTVTG"
valuekind = "mAb binding (MFI)"
reading = 193000


This collection of values is drawn from patent US20260049134A1.
